Where do these numbers come from? They come from patent US12215123B2.

The reader will find reported IC50 values listed item by item below.
Tested on: gastric cancer cell line BGC-823
procedure summary: MTT proliferation, gastric cancer cell line BGC-823
Type: cell-based
condition description: MTT, 72 hours, BGC-823; read-out: IC50 (μM) in gastric cancer cells, BGC-823
A complete answer gives the number and then names the unit.

compound	IC50
Nc1ncnc2c1ncn2[C@@H]1O[C@H](COCCO)CC1O (some centres unmarked)	64.4 µM
CCCCCOC1CC(COCP(=O)(O)O)OC1n1cnc2c(NC(=O)c3ccncc3)ncnc21 (centres unmarked)	19.8 µM
COC(=O)C(C)NP(=O)(Oc1ccccc1)OC1C[C@@H](CO)O[C@H]1n1cnc2c(N)ncnc21 (some centres unmarked)	29.5 µM
CC(C)[C@H](N)C(=O)OCC(CO)OCC1CC(O)C(n2cnc3c(N)ncnc32)O1 (some centres unmarked)	18.8 µM

Reported IC50 for CC(C)OC(=O)[C@H](C)NP(=O)(COCC1CC(C#N)C(n2cnc3c(N)ncnc32)O1)Oc1ccccc1 (some centres unmarked) : what is it?
0.19 µM

###

System: small cell lung cancer cell line H1048
procedure summary: MTT proliferation, small cell lung cancer cell line H1048
Assay type: cell-based
condition description: Homo sapiens, NCI-H1048, 72 h, read-out: IC50 (μM) of compounds in small cell lung cancer cells, H1048
endpoint name: IC50

Reported IC50 for CC(C)OC(=O)C(C)NP(=O)(COC[C@@H]1CC(O)[C@H](n2cnc3c(NC(=O)c4ccncc4)ncnc32)O1)Oc1ccccc1 (some centres unmarked) : what is it?
24.4 µM

Reported IC50 for CC(C)OC(=O)C(C)NP(=O)(COC[C@@H]1CC(O)[C@H](n2cnc3c(N)ncnc32)O1)Oc1ccccc1 (some centres unmarked) : what is it?
12.1 µM

###

The reader will find reported Maximum tolerance dose (MTD) in zebrafish model values listed item by item below.
Test system: wild-type AB-line zebrafish
condition description: 3 dpf to 5 dpf, 35° C.; survival rate>90% and teratogenicity<20%
// note: answer is a bare numeric in µM

Worked set:
compound	study system	recorded result
COC(=O)C(NP(=O)(OC[C@@H]1CC(O)[C@H](n2cnc3c(N)ncnc32)O1)Oc1ccccc1)C(C)C (stereo partly shown)	wild-type AB-line zebrafish	384
CC(C)C(=O)OCOP(=O)(COC[C@@H]1CC(O)[C@H](n2cnc3c(N)ncnc32)O1)OCOC(=O)C(C)C (stereo partly shown)	wild-type AB-line zebrafish	525
Nc1nc(F)nc2c1ncn2C1OC(COC2CC(CO)C(O)C2O)CC1O (stereo not shown)	wild-type AB-line zebrafish	0.02

Field: next compound
Reported Maximum tolerance dose (MTD) in zebrafish model for CC(C)OC(=O)C(C)NP(=O)(COC[C@@H]1CC(O)[C@H](n2cnc3c(N)ncnc32)O1)Oc1ccccc1 (stereo partly shown) : what is it?
62

###

Tested on: small cell lung cancer cell line H1048
procedure summary: MTT proliferation, small cell lung cancer cell line H1048
Type: cell-based
condition description: Homo sapiens, NCI-H1048, 72 h, MTT, 72 hours, H1048; read-out: IC50 (μM) of compounds in small cell lung cancer cells, H1048
The reader will find reported IC50 values listed item by item below.
// note: answer is a bare numeric in µM

compound	IC50, µM
CC(C)C(=O)OCOP(=O)(COC[C@@H]1CC(O)[C@H](n2cnc3c(N)ncnc32)O1)OCOC(=O)C(C)C (stereo partly drawn)	40.9
Nc1nc(/C=C/Br)nc2c1ncn2[C@@H]1O[C@H](COP(=O)(O)O)CC1O (stereo partly drawn)	1.37

Reported IC50 for CC(C)(C)C(=O)OCOP(=O)(COC[C@@H]1CC(O)[C@H](n2cnc3c(NC(=O)c4ccncc4)ncnc32)O1)OCOC(=O)C(C)(C)C (stereo partly drawn) : what is it?
17.4
